- Tested on: lambsquarters (Chenopodium album)
- assay procedure: Test B pre-/postemergence plant response
- Assay type: in vivo
- measurement context: 31 g ai/ha, postemergence; scale 0 to 100, 0 is no effect, 100 is complete control
property measured: Plant response rating, Lambsquarters
Give the figure by itself; no unit, no explanation.

Study these solved cases before continuing.
>>> observed_measurement("CCCCCn1c(-c2ccccc2)ncc(C(=O)C2=C(O)CCCC2=O)c1=O [Compound 89]")
95
>>> observed_measurement("COCCn1c(-c2cc(F)cc(F)c2)ncc(C(=O)C2=C(O)CCCC2=O)c1=O [Compound 119]")
85
>>> observed_measurement("Cc1ccc(-c2ncc(C(=O)C3=C(O)CCCC3=O)c(=O)n2-c2ccccc2)cc1 [Compound 80]")
95
>>> observed_measurement("COCC(C)n1c(-c2ccccc2)ncc(C(=O)C2=C(O)CCCC2=O)c1=O (stereo not drawn) [Compound 107]")
90
>>> observed_measurement("COCCCn1c(-c2cccc(C)c2)ncc(C(=O)C2=C(O)CCCC2=O)c1=O [Compound 118]")
85
>>> observed_measurement("Cn1c(-c2ccccc2)ncc(C(=O)C2=C(O)CCCC2=O)c1=O [Compound 55]")
80
>>> observed_measurement("COCCn1c(-c2ccccc2)ncc(C(=O)C2=C(O)CCCC2=O)c1=O [Compound 85]")
98
>>> observed_measurement("CCCCc1ncc(C(=O)C2=C(O)CCCC2=O)c(=O)n1-c1ccc(C)cc1 [Compound 67]")
80

Note: attention shifts to another entry.
What measured Plant response rating, Lambsquarters goes with O=C1CCCC(OC(=O)C2CC2)=C1C(=O)c1cnc(-c2ccccc2)n(-c2ccccc2)c1=O [Compound 88] ?
95

* * *

- Test system: umbrella sedge (Cyperus difformis)
- assay procedure: Test B flooded paddy test
- Type: in vivo
- measurement context: 250 g ai/ha; flooded paddy test; visual rating on 0 to 100 scale (0 no effect, 100 complete control) after 13 to 15 days
property measured: Plant response rating, Flood, Sedge, Umbrella
The response must contain the number and no unit.

Sample answers from the record:
>>> observed_measurement("Cc1cccc(Cl)c1-n1c(-c2ccccc2)ncc(C(=O)C2=C(O)CCCC2=O)c1=O [Compound 46]")
65
>>> observed_measurement("Cc1ccc(Cl)cc1-n1c(-c2cccc(F)c2)ncc(C(=O)C2=C(O)CCCC2=O)c1=O [Compound 184]")
95
>>> observed_measurement("O=C1CCCC(O)=C1C(=O)c1cnc(-c2ccccc2)n(-c2ccccc2F)c1=O [Compound 26]")
85
>>> observed_measurement("Cc1ccc(-n2c(-c3ccccc3)ncc(C(=O)C3=C(O)CCCC3=O)c2=O)c(C)c1 [Compound 28]")
80
>>> observed_measurement("COCCCn1c(-c2cccc(F)c2)ncc(C(=O)C2=C(O)C3CCC(C3)C2=O)c1=O (centres unmarked) [Compound 238]")
80

For O=C1CCCC(O)=C1C(=O)c1cnc(-c2ccc(F)cc2)n(C2CCCCC2)c1=O [Compound 197] , what is its reported Plant response rating, Flood, Sedge, Umbrella?
85

Query O=C1CCCC(O)=C1C(=O)c1cnc(-c2cccs2)n(C2CCCCC2)c1=O [Compound 189] next
100

Then COc1ccc(-n2c(-c3ccccc3)ncc(C(=O)C3=C(O)CCCC3=O)c2=O)cc1OC [Compound 218] ?
85

* * *

- Test system: large crabgrass (Digitaria sanguinalis)
- assay procedure: Test A pre-/postemergence plant response
- Assay type: in vivo
- measurement context: Postemergence, 125 g ai/ha; 0 to 100 scale where 0 is no effect and 100 is complete control
Outcome: MET for Plant response rating, Crabgrass, Large of at least 80; NOT MET for anything lower.

These recorded examples may help you get a feel for the data.
>>> class("O=C1CCCC(O)=C1C(=O)c1cnc(-c2cc(F)c(F)c(F)c2)n(C2CCCCC2)c1=O")
"NOT MET"
>>> class("O=C1CCCC(O)=C1C(=O)c1cnc(-c2cccs2)n(C2CCCCC2)c1=O")
"MET"
>>> class("O=C1CCCC(O)=C1C(=O)c1cnc(-c2cccc(F)c2)n(C2CCCCC2)c1=O")
"MET"
>>> class("O=C1CCCC(O)=C1C(=O)c1cnc(-c2cccc(F)c2)n(CCC(F)(F)F)c1=O")
"NOT MET"
>>> class("Cc1cc(F)ccc1-n1c(-c2cccc(Br)c2)ncc(C(=O)C2=C(O)CCCC2=O)c1=O")
"NOT MET"

Assess whether reported Plant response rating, Crabgrass, Large for O=C1CCCC(O)=C1C(=O)c1cnc(-c2cccc(F)c2)n(-c2ccccc2)c1=O sits at 80 or higher.
NOT MET

* * *

- Test system: kochia (Kochia scoparia)
- assay procedure: Test B pre-/postemergence plant response
- Format: in vivo
- measurement context: Postemergence, 250 g ai/ha; scale 0 to 100 (0 no effect, 100 complete control); 13 to 15 days
property measured: Plant response rating, Kochia
Answer with the value's number alone.

>>> observed_measurement("COCCCn1c(-c2cccc(Br)c2)ncc(C(=O)C2=C(O)CCCC2=O)c1=O")
35

Any idea what its Plant response rating, Kochia is? The compound is COCCn1c(-c2cccc(F)c2)ncc(C(=O)C2=C(O)C3CCC(C3)C2=O)c1=O (stereo not shown)
100

Then what about the compound CCCn1c(-c2cccc(Cl)c2)ncc(C(=O)C2=C(O)CCCC2=O)c1=O ?
98

What about O=C1CCCC(O)=C1C(=O)c1cnc(-c2ccc(F)cc2)n(C2CCCCC2)c1=O ?
98

Do the same for CCCCn1c(-c2cccc(F)c2)ncc(C(=O)C2=C(O)C3CCC(C3)C2=O)c1=O (stereo not shown) please
100

Now consider COCCn1c(-c2cccc(Cl)c2)ncc(C(=O)C2=C(O)CCCC2=O)c1=O and answer again.
100

Input O=C(C1=C(O)C2CCC(C2)C1=O)c1cnc(-c2ccsc2)n(CC2CCCO2)c1=O (stereo not shown)
100

* * *

- Test system: blackgrass (Alopecurus myosuroides)
- assay procedure: Test B pre-/postemergence plant response
- Format: in vivo
- measurement context: Preemergence, 62 g ai/ha; scale 0 to 100 (0 no effect, 100 complete control)
property measured: Plant response rating, Blackgrass
Please respond with just the number, no unit label.

Example entries begin here.
>>> observed_measurement("O=C1CCCC(O)=C1C(=O)c1cnc(-c2ccccc2)n(-c2ccccc2F)c1=O [Compound 26]")
0
>>> observed_measurement("COCCCn1c(-c2cc(F)cc(F)c2)ncc(C(=O)C2=C(O)CCCC2=O)c1=O [Compound 120]")
50
>>> observed_measurement("CCCCn1c(-c2cc(F)cc(F)c2)ncc(C(=O)C2=C(O)C3CCC(C3)C2=O)c1=O (stereo not shown) [Compound 245]")
5
>>> observed_measurement("O=C1CCCC(O)=C1C(=O)c1cnc(-c2ccsc2)n(-c2ccccc2)c1=O [Compound 56]")
0
>>> observed_measurement("O=C1CCCC(O)=C1C(=O)c1cnc(-c2ccccc2)n(-c2cccc(Br)c2)c1=O [Compound 38]")
5

Please report the recorded Plant response rating, Blackgrass for CCCc1ncc(C(=O)C2=C(O)CCCC2=O)c(=O)n1-c1ccccc1C [Compound 73] .
0

Repeat for the following compound: CCCCc1ncc(C(=O)C2=C(O)CCCC2=O)c(=O)n1-c1ccccc1 [Compound 42]
0

* * *

- Tested on: soybean (Glycine max)
- assay procedure: Test B pre-/postemergence plant response
- Format: in vivo
- measurement context: Postemergence, 62 g ai/ha; scale 0 to 100 (0 no effect, 100 complete control)
Each record here notes measured Plant response rating, Soybean.

>>> observed_measurement("COc1ccc(-n2c(-c3ccccc3)ncc(C(=O)C3=C(O)CCCC3=O)c2=O)cc1OC")
100
>>> observed_measurement("COCCn1c(-c2cccc(F)c2)ncc(C(=O)C2=C(O)C3CCC(C3)C2=O)c1=O (stereo not drawn)")
100

For the next question, use this compound.
Data request, read-out Plant response rating, Soybean, for CCc1ccccc1-n1c(-c2ccccc2)ncc(C(=O)C2=C(O)CCCC2=O)c1=O
95

* * *

- System: wild oat (Avena fatua)
- assay procedure: Test B pre-/postemergence plant response
- Assay type: in vivo
- measurement context: Postemergence, 125 g ai/ha; scale 0 to 100 (0 no effect, 100 complete control)
property measured: Plant response rating, Oat, Wild
Returns: the value as a bare number; no unit string appended.

>>> observed_measurement("COCCCn1c(-c2cccc(Br)c2)ncc(C(=O)C2=C(O)CCCC2=O)c1=O")
10
>>> observed_measurement("CCCn1c(-c2cccc(Cl)c2)ncc(C(=O)C2=C(O)CCCC2=O)c1=O")
40
>>> observed_measurement("Cc1ccc(F)cc1-n1c(-c2cccc(Cl)c2)ncc(C(=O)C2=C(O)CCCC2=O)c1=O")
60

Next:
Look up Plant response rating, Oat, Wild for this compound: Cc1cc(-n2c(-c3cccc(F)c3)ncc(C(=O)C3=C(O)CCCC3=O)c2=O)ccc1F
70

* * *

- Tested on: corn (Zea mays)
- assay procedure: Test B pre-/postemergence plant response
- Type: in vivo
- measurement context: 62 g ai/ha, postemergence; 0 is no effect, 100 is complete control; 13 to 15 days
Binary call on Corn plant response rating (0 to 100 scale) with cut-off 5: strictly below means rule met, and equality or higher means rule not met.

The following molecules have reported results that may help.
>>> class("COCCCn1c(-c2cccc(C)c2)ncc(C(=O)C2=C(O)CCCC2=O)c1=O")
"rule met"
>>> class("Cc1ccc(-c2ncc(C(=O)C3=C(O)CCCC3=O)c(=O)n2-c2ccccc2)cc1")
"rule not met"
>>> class("CCCc1ncc(C(=O)C2=C(O)CCCC2=O)c(=O)n1CC1CCCO1 (stereo not drawn)")
"rule met"
>>> class("O=C1CCCC(OC(=O)C2CC2)=C1C(=O)c1cnc(-c2ccccc2)n(-c2ccccc2)c1=O")
"rule not met"
>>> class("CCCn1c(-c2ccc(F)cc2)ncc(C(=O)C2=C(O)CCCC2=O)c1=O")
"rule not met"
>>> class("CCCCCn1c(-c2ccccc2)ncc(C(=O)C2=C(O)CCCC2=O)c1=O")
"rule not met"
>>> class("O=C1CCCC(O)=C1C(=O)c1cnc(-c2ccccc2)n(C2CCCC2)c1=O")
"rule not met"
>>> class("COCCCn1c(-c2cc(F)cc(F)c2)ncc(C(=O)C2=C(O)CCCC2=O)c1=O")
"rule not met"

Then this molecule:
Regarding CCCCn1c(-c2ccccc2)ncc(C(=O)C2=C(O)CCCC2=O)c1=O , kindly confirm whether its Corn plant response rating (0 to 100 scale) is beneath 5.
rule not met
